The origin of these recorded values is paper PMC8074287.

observable: melting point

compound: O=C1CC(c2nc3ccccc3o2)CN1c1ccc(F)c(Cl)c1 (centres unmarked)
melting point: 187 to 189 °C

compound: O=C1CC(c2nc3ccccc3o2)CN1c1ccc(Cl)cc1 (centres unmarked)
melting point: 174 to 176 °C

compound: Cc1ccc(N2CC(c3nc4ccccc4o3)CC2=O)cc1 (centres unmarked)
melting point: 164 to 166 °C

compound: Cc1ccccc1N1CC(c2nc3ccccc3o2)CC1=O (centres unmarked)
melting point: 162 to 164 °C

compound: O=C1CC(c2nc3ccccc3o2)CN1c1ccc(O)cc1 (centres unmarked)
melting point: 242 to 245 °C

compound: O=C1CC(c2nc3ccccc3o2)CN1Cc1ccccc1 (centres unmarked)
melting point: 160 to 162 °C

compound: O=C1CC(c2nc3ccccc3o2)CN1c1ccccc1 (centres unmarked)
melting point: 148 to 150 °C

Below: the item to evaluate.
Quick one: melting point for COc1ccc(N2CC(c3nc4ccccc4o3)CC2=O)cc1 (centres unmarked) ?
177 to 179 °C
